Quick list: combination Emax per entry.
test system: RERF-LC-KJ (Lung Adenocarcinoma); assay: combination Emax (second highest fraction inhibited in the dose matrix, 72 h); higher = more inhibition; extreme values may be limits of the assay

compound	combination Emax
CC(=O)c1c(C)c2cnc(Nc3ccc(N4CCNCC4)cn3)nc2n(C2CCCC2)c1=O [Palbociclib] + CC1(C)CCC(CN2CCN(c3ccc(C(=O)NS(=O)(=O)c4ccc(NCC5CCOCC5)c([N+](=O)[O-])c4)c(Oc4cnc5[nH]ccc5c4)c3)CC2)=C(c2ccc(Cl)cc2)C1 [Venetoclax] (first compound max 10 µM, 7x7, partner max 1 µM)	0.117
C[C@@H](c1ccc2nccn2c1)n1nnc2ncc(-c3cnn(C)c3)nc21 [Savolitinib] + CC1(C)CCC(CN2CCN(c3ccc(C(=O)NS(=O)(=O)c4ccc(NCC5CCOCC5)c([N+](=O)[O-])c4)c(Oc4cnc5[nH]ccc5c4)c3)CC2)=C(c2ccc(Cl)cc2)C1 [Venetoclax] (first compound max 1 µM, 7x7, partner max 1 µM)	0.15
Cc1nc(Nc2ncc(C(=O)Nc3c(C)cccc3Cl)s2)cc(N2CCN(CCO)CC2)n1 [Dasatinib] + CC(=O)Nc1cccc(-n2c(=O)n(C3CC3)c(=O)c3c(Nc4ccc(I)cc4F)n(C)c(=O)c(C)c32)c1 [Trametinib] (first compound max 2 µM, 7x7, partner max 1 µM)	0.436

* * *

tested on: KYM-1 (Rhabdomyosarcoma); experiment: Bliss excess, mean over the matrix (fraction); higher = more synergy;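 also: after 72 h of two-drug dosing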
List of Bliss excess values.
recorded metric: Bliss excess

molecule	meas value
Cc1c2c(nn1C)CSCc1cc(n(C)n1)CSc1cc(c3ccccc3c1)OCCCc1c(C(=O)O)n(C)c3c-2c(Cl)ccc13 [AZD5991] + CN(C)CCCOc1ccc(-c2ccc3ncc4c(c3c2)n(C2CCOCC2)c(=O)n4C)cn1 [AZD0156] (first compound max 1 µM, 7x7, partner max 1 µM)	0.0046
C=CCn1c(=O)c2cnc(Nc3ccc(N4CCN(C)CC4)cc3)nc2n1-c1cccc(C(C)(C)O)n1 [AZD1775] + C[C@@H]1COCCN1C2=NC(=NC(=C2)C3(CC3)[S@](=N)(=O)C)C4=C5C=CNC5=NC=C4 [AZD6738] (first compound max 1 µM, partner max 10 µM)	0.0587
N#Cc1cnc(Nc2cc(NC[C@H]3CNCCO3)c(C(F)(F)F)cn2)cn1 [SRA737] + C=CCn1c(=O)c2cnc(Nc3ccc(N4CCN(C)CC4)cc3)nc2n1-c1cccc(C(C)(C)O)n1 [AZD1775] (first compound max 10 µM, partner max 1 µM)	0.0382
CN(CCO)CC[C@H](CSc1ccccc1)Nc1ccc(S(=O)(=O)NC(=O)c2ccc(N3CCC([C@@H](O)c4ccccc4-c4ccc(Cl)cc4)CC3)cc2)cc1S(=O)(=O)C(F)(F)F [AZD4320] + Cc1cc2ncnn2cc1Nc1ncc2c(n1)n(C1CCOCC1)c(=O)n2C [AZD7648] (first compound max 1 µM, 7x7, partner max 10 µM)	-0.018
CS(=O)(=O)CCNCc1ccc(-c2ccc3ncnc(Nc4ccc(OCc5cccc(F)c5)c(Cl)c4)c3c2)o1 [Lapatinib] + Cn1cnc2c(F)c(Nc3ccc(Br)cc3Cl)c(C(=O)NOCCO)cc21 [Selumetinib] (first compound max 10 µM, 7x7, partner max 10 µM)	0.0148
Cc1c2c(nn1C)CSCc1cc(n(C)n1)CSc1cc(c3ccccc3c1)OCCCc1c(C(=O)O)n(C)c3c-2c(Cl)ccc13 [AZD5991] + CC1(C)CCC(CN2CCN(c3ccc(C(=O)NS(=O)(=O)c4ccc(NCC5CCOCC5)c([N+](=O)[O-])c4)c(Oc4cnc5[nH]ccc5c4)c3)CC2)=C(c2ccc(Cl)cc2)C1 [Venetoclax] (first compound max 1 µM, 7x7, partner max 1 µM)	0.0117
C[C@@H]1COCCN1c1cc(C2([S@](C)(=N)=O)CC2)nc(-c2ccnc3[nH]ccc23)n1 [AZD6738] + C1CC(C1)(C(=O)[O-])C(=O)[O-].N.N.[Pt+2] [Carboplatin] (first compound max 10 µM, 7x7, partner max 10 µM)	0.0183

# credit: the supplement of paper PMC11061612
